Hi there, I'd appreciate the recorded MIC for every entry that follows.
Test system: Acinetobacter baumannii T6474
experiment summary: Bacterial growth minimal inhibitory concentration (broth microdilution, CLSI M7-A7)
Assay type: cell-based
condition: Acinetobacter baumannii, T6474; cation-adjusted Mueller-Hinton Broth, microdilution; multiply-resistant (quinolone-resistant) strain; read-out: MIC for A. Baumannii T6474
// note: answer is a bare numeric in µg/mL

Exam item: MIC for "C[C@@](CCn1cc2cc(C#Cc3ccc(OCCO)cc3)ccc2n1)(C(=O)NO)S(C)(=O)=O" ?
Marked response: 0.25

Exam item: Next compound up: "C[C@@](CCn1cc2cc(C#CC#C[C@@H]3C[C@H]3[C@H](O)CO)ccc2n1)(C(=O)NO)S(C)(=O)=O"
Marked response: 8

Exam item: Next compound up: "COc1ccc(-c2ccc3nn(CC[C@](C)(C(=O)NO)S(C)(=O)=O)cc3c2F)cc1"
Marked response: 2

Exam item: Next compound up: "C[C@@](CCn1cc2cc(C#Cc3ccc(N)cc3)ccc2n1)(C(=O)NO)S(C)(=O)=O"
Marked response: 0.5

Exam item: Next compound up: "COc1ccc(-c2ccc3nn(CC[C@](C)(C(=O)NO)S(C)(=O)=O)cc3c2)cc1"
Marked response: 1

Exam item: Next compound up: "C[C@@](CCn1cc2cc(C#CC#CCC3(O)COC3)ccc2n1)(C(=O)NO)S(C)(=O)=O"
Marked response: 32

Exam item: Next compound up: "C[C@@](CCn1cc2cc(-c3ccc(OC[C@H](O)CO)cc3F)ccc2n1)(C(=O)NO)S(C)(=O)=O"
Marked response: 8

Exam item: Next compound up: "C[C@@](CCn1cc2cc(C#Cc3ccc([C@@H]4C[C@H]4CO)cc3)ccc2n1)(C(=O)NO)S(C)(=O)=O"
Marked response: 0.125

Each recorded value in this set is attributed to patent US9802901B2.
